Cited source for all entries: paper PMC9928118

# Test system: GST-tagged Cn
# ASSAY: PEPperPRINT peptide microarray binding assay with GST-tagged Cn
# ASSAY SETUP: GST-tagged Cn, mean over the spots on the chip (two locations)
ASSAY METRIC: Chip Fluorescence (mean)
Lab note: record the figure alone, no unit after it.

(Q) # Chip Fluorescence (mean) lookup, item QKRYGETFPPVKTGSD [Seqshuffled_1489]
(A) -0.2303

(Q) # Chip Fluorescence (mean) lookup, item TTSTNPQIRITDHEDE [Seqshuffled_9411]
(A) -7.047

(Q) # Chip Fluorescence (mean) lookup, item SKLMCVTLAIGSLSTS [SeqRBM_2514]
(A) -0.2904

(Q) # Chip Fluorescence (mean) lookup, item NVSSSPRVTLKIPQHR [SeqRBM_7185]
(A) 0.1459

(Q) # Chip Fluorescence (mean) lookup, item LTDAAPEVVVSKPEHN [SeqRBMlowT_7696]
(A) 0.2646

====

Consider the following sequences; for each one, report its Chip Fluorescence (mean).
# Test system: GST-tagged Cn
# ASSAY: PEPperPRINT peptide microarray binding assay with GST-tagged Cn
# ASSAY SETUP: GST-tagged Cn, mean over the spots on the chip (two locations)

(Q) # Chip Fluorescence (mean) lookup, item TFWTNPQYRVHVPDED [SeqRBMlowT_2927]
(A) -0.6745

(Q) # Chip Fluorescence (mean) lookup, item TFWTNPQYRLWIVSVD [SeqRBM_2615]
(A) -0.4347

(Q) # Chip Fluorescence (mean) lookup, item ARPPNAAFVLDQETTY [Seqshuffled_9990]
(A) 0.6258

(Q) # Chip Fluorescence (mean) lookup, item SFWTNPQFRVKLEEVD [SeqRBMlowT_8566]
(A) 0.3513

(Q) # Chip Fluorescence (mean) lookup, item PSLFPDALGLGQFSLS [SeqCRZ1_Aureobasidium_pullulans]
(A) 0.42

(Q) # Chip Fluorescence (mean) lookup, item QLLAVPALSVDRKGPK [SeqCACUL1_Dipodomys_ordii]
(A) -0.04024

(Q) # Chip Fluorescence (mean) lookup, item HVSSSPDITITPTQHR [SeqRBMlowT_702]
(A) 0.3347

(Q) # Chip Fluorescence (mean) lookup, item ATDNQPGIVVHICADM [SeqRCN1_Daphnia_magna]
(A) 0.4617

(Q) # Chip Fluorescence (mean) lookup, item RNPGQALLTLRGHKKQ [SeqRBMlowT_5826]
(A) 0.1411

(Q) # Chip Fluorescence (mean) lookup, item GPPATPSIVVHPCCCD [SeqRBM_2098]
(A) -0.005812

(Q) # Chip Fluorescence (mean) lookup, item KKMSPPCISVDPPDEL [SeqCACNA1H_Nothobranchius_rachovii]
(A) -0.004401

(Q) # Chip Fluorescence (mean) lookup, item RNPGIALLSLRGHKAQ [SeqRBMlowT_8792]
(A) 0.3008

(Q) # Chip Fluorescence (mean) lookup, item TFWTNPQFRIKVEDPD [SeqRBMlowT_6818]
(A) -0.755

(Q) # Chip Fluorescence (mean) lookup, item STSSLPTFSFSTPPPT [SeqRBMlowT_1617]
(A) -1.34

(Q) # Chip Fluorescence (mean) lookup, item LKDEFPEVRLNIISNL [SeqRBMlowT_1004]
(A) 0.2404

(Q) # Chip Fluorescence (mean) lookup, item SDEAGVRIVITVTEAP [SeqRBMlowT_9535]
(A) -0.5729

(Q) # Chip Fluorescence (mean) lookup, item KSRALSKVVINEPLTI [SeqTRESK_Leptosomus_discolor]
(A) -0.6623

(Q) # Chip Fluorescence (mean) lookup, item RAMRILKCCPHPAAWN [Seqrandom_9981]
(A) 0.3693

(Q) # Chip Fluorescence (mean) lookup, item TFWTNPQYRVKVTEPD [SeqRBMlowT_7349]
(A) 0.2599

(Q) # Chip Fluorescence (mean) lookup, item STSSLPTFSFSSPQPS [SeqRBMlowT_3925]
(A) -0.7201

(Q) # Chip Fluorescence (mean) lookup, item TFWTNPQYRITLEDVD [SeqRBMlowT_4237]
(A) 0.5254

(Q) # Chip Fluorescence (mean) lookup, item PSMYQPHIIVKVAETE [SeqRBM_4049]
(A) 0.1884

(Q) # Chip Fluorescence (mean) lookup, item TFWTNPQFKITLTDPD [SeqRBMlowT_9027]
(A) -0.7291

(Q) # Chip Fluorescence (mean) lookup, item KSKLIPKLSIQSPVRH [SeqJHY_Macaca_mulatta]
(A) -1.294

(Q) # Chip Fluorescence (mean) lookup, item RAYINPFMQFNDGGSR [SeqRBM_9542]
(A) 0.2992
